study-system: UniProt:Q8TDV5
assay-text: Agonist activity at human GPR119 expressed in HEK293 cells assessed as cAMP accumulation after 30 mins by fluorescence analysis
Format: functional, cell-based
value-type: %max

Solved entries (count: 3):
compound | study-system | %max
Cc1c(Nc2ccc(C#N)cc2Cl)ncnc1OC1C2COCC1CN(S(=O)(=O)C1CC1)C2 (stereo in doubt; 18) | UniProt:Q8TDV5 | 52%
Cc1c(Nc2ccc(S(C)(=O)=O)cc2F)ncnc1OC1CC2COCC(C1)N2C(=O)OC1(C)CC1 (centres undefined) | UniProt:Q8TDV5 | 87%
Cc1c(Nc2ccc(S(C)(=O)=O)cc2Cl)ncnc1OC1CC2COCC(C1)N2C(=O)OC(C)(C)C (centres undefined) | UniProt:Q8TDV5 | 49%

# evaluate next
Look up UniProt:Q8TDV5 data: %max of Cc1c(Nc2ccc(C#N)cc2Cl)ncnc1OC1C2COCC1CN(S(=O)(=O)C1CC1)C2 (stereo in doubt; 17) , then report it.
56%

###

study-system: Glucose-dependent insulinotropic receptor (Mus musculus, UniProt Q7TQP3)
Sequence (Q7TQP3 whole entry): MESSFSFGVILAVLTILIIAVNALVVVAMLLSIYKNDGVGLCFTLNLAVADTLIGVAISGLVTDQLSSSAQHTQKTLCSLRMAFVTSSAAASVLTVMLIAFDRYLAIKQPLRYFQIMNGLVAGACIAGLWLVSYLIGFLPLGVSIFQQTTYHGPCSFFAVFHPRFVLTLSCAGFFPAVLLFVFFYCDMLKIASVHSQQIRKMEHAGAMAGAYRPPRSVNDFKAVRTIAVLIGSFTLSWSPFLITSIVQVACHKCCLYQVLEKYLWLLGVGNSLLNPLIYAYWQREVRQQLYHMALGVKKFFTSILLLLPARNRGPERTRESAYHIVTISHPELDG
assay-text: Agonist activity at mouse GPR119 expressed in HEK293 cells assessed as cAMP accumulation after 30 mins by fluorescence analysis
value-type: EC50 (nM)
Supply the numeric figure in nM, leaving out any unit text.

Solved entries (count: 3):
compound | value-type | unit-abbrev | recorded-number
Cc1c(Nc2ccc(S(C)(=O)=O)cc2F)ncnc1OC1CC2COCC(C1)N2C(=O)OC1(C)CC1 (centres undefined) | EC50 | nM | 511
Cc1c(Nc2ccc(C#N)cc2Cl)ncnc1OC1CC2COCC(C1)N2S(=O)(=O)C1CC1 (centres undefined) | EC50 | nM | 1600
Cc1c(Nc2ccc(C#N)cc2Cl)ncnc1OC1C2COCC1CN(C(=O)OC(C)(C)C)C2 (stereo in doubt; 19) | EC50 | nM | 28

Look up Glucose-dependent insulinotropic receptor (Mus musculus, UniProt Q7TQP3) data: EC50 of Cc1c(Nc2ccc(C#N)cc2Cl)ncnc1OC1C2COCC1CN(C(=O)OC(C)(C)C)C2 (stereo in doubt; 20) , then report it.
140

###

assay-text: Solubility of compound at pH 7.4
Assay type: physicochemical
experimental-setup: buffer
Listing of recorded solubility by entry.
Supply the numeric figure in µM, leaving out any unit text.

Solved entries (count: 2):
molecule | recorded-number
Cc1c(Nc2ccc(S(C)(=O)=O)cc2F)ncnc1OC1CC2COCC(C1)N2C(=O)OC1(C)CC1 (stereo not drawn) | 3.4
Cc1c(Nc2ccc(C#N)cc2Cl)ncnc1OC1C2COCC1CN(C(=O)OC1(C)CC1)C2 (stereo not drawn) | 6

Please list solubility recorded for the molecule COc1c(Nc2ccc(C#N)cc2Cl)ncnc1OC1C2COCC1CN(C(=O)OC1(C)CC1)C2 (stereo not drawn)
30

###

study-system: Glucose-dependent insulinotropic receptor (Homo sapiens, UniProt Q8TDV5)
Sequence (Q8TDV5 whole entry): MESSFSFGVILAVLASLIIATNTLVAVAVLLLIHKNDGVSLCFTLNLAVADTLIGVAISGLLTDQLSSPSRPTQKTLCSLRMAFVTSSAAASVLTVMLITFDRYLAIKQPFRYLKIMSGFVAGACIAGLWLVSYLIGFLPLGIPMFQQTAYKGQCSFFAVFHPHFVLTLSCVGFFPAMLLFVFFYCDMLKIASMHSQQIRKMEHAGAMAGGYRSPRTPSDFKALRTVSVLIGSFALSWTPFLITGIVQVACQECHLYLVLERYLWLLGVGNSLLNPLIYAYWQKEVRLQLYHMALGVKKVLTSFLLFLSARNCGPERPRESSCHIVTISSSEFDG
assay-text: Agonist activity at human GPR119 expressed in HEK293 cells assessed as cAMP accumulation after 30 mins by fluorescence analysis
value-type: EC50 (nM)
Supply the numeric figure in nM, leaving out any unit text.

molecule | EC50 (nM)
Cc1c(Oc2ccc(C#N)cc2Cl)ncnc1OC1C2COCC1CN(C(=O)OC1(C)CC1)C2 (stereo unspecified) | 16
Cc1c(Nc2ccc(S(C)(=O)=O)cc2F)ncnc1OC1CC2COCC(C1)N2C(=O)OC1(C)CC1 (stereo unspecified) | 70
Cc1c(Nc2ccc(C#N)cc2Cl)ncnc1OC1CC2COCC(C1)N2C(=O)OC(C)(C)C (stereo in doubt; 14) | 114
Cc1c(Nc2ccc(C#N)cc2Cl)ncnc1OC1C2COCC1CN(C(=O)OC(C)(C)C)C2 (stereo in doubt; 19) | 7
Cc1c(Nc2ccc(C#N)cc2Cl)ncnc1OC1C2COCC1CN(S(=O)(=O)C1CC1)C2 (stereo in doubt; 17) | 51

Please list EC50 recorded for the molecule Cc1c(Nc2ccc(C#N)cc2Cl)ncnc1OC1CC2COCC(C1)N2C(=O)OC(C)(C)C (stereo in doubt; 15)
17

Please list EC50 recorded for the molecule Cc1c(Nc2ccc(C#N)cc2Cl)ncnc1OC1CC2COCC(C1)N2S(=O)(=O)C1CC1 (stereo unspecified)
268

Please list EC50 recorded for the molecule CC1(OC(=O)N2CC3COCC(C2)C3Oc2cc(Nc3ccc(C#N)cc3Cl)ncn2)CC1 (stereo unspecified)
25

Please list EC50 recorded for the molecule Cc1c(Nc2ccc(C#N)cc2Cl)ncnc1OC1C2COCC1CN(S(=O)(=O)C1CC1)C2 (stereo in doubt; 18)
1210

Please list EC50 recorded for the molecule COc1c(Nc2ccc(C#N)cc2Cl)ncnc1OC1C2COCC1CN(C(=O)OC1(C)CC1)C2 (stereo unspecified)
7

Please list EC50 recorded for the molecule Cc1c(Nc2ccc(C#N)cc2Cl)ncnc1OC1C2COCC1CN(C(=O)OC1(C)CC1)C2 (stereo unspecified)
4

Please list EC50 recorded for the molecule COc1c(Nc2ccc(C#N)cc2F)ncnc1OC1C2COCC1CN(C(=O)OC1(C)CC1)C2 (stereo unspecified)
5

Please list EC50 recorded for the molecule Cc1c(Nc2ccc(S(C)(=O)=O)cc2Cl)ncnc1OC1CC2COCC(C1)N2C(=O)OC(C)(C)C (stereo unspecified)
44

Please list EC50 recorded for the molecule Cc1c(Nc2ccc(C#N)cc2Cl)ncnc1OC1C2COCC1CN(C(=O)OC(C)(C)C)C2 (stereo in doubt; 20)
20

Please list EC50 recorded for the molecule Cc1ncccc1Nc1ncnc(OC2C3COCC2CN(C(=O)OC(C)C)C3)c1C (stereo in doubt; 21)
65
